The measured values listed here are drawn from patent US20230123334A1.

System: HEK293 cells
Assay: Preliminary screening as mRNA vectors, EGFP mRNA transfection of HEK293 cells
Type: cell-based
Settings: HEK293 cells, 96-well plates, EGFP mRNA 50 ng per well; percentage of GFP fluorescent cells relative to total number of cells (Hoechst)
Property Measured: Absolute mRNA transfection efficiency in HEK293 cells (%)
Give just the numeric value; % need not be written.

The following compounds have reported results that may help.
[
  {
    "Substance Smiles": "CCCCCCCCCCCCCCCSc1nc(NCCN2CCCC2)nc(SCCCCCCCCCCC)n1",
    "Tested System": "HEK293 cells",
    "Readout Number": 5.3
  },
  {
    "Substance Smiles": "CCCCCCCCCCCCCCCCCCSc1nc(NCCN2CCN(C)CC2)nc(SCCCCCCCC)n1",
    "Tested System": "HEK293 cells",
    "Readout Number": 27.5
  },
  {
    "Substance Smiles": "CCCCCCCCCCCCCCCCNc1nc(NCCCCCCCCC)nc(NCCCN2CCOCC2)n1",
    "Tested System": "HEK293 cells",
    "Readout Number": 0.0
  },
  {
    "Substance Smiles": "CCCCCCCCCCCCN(CCCCCCCCCCCC)c1nc(NCCCCCCCC)nc(NCCCN2CCN(C)CC2)n1",
    "Tested System": "HEK293 cells",
    "Readout Number": 0.4
  },
  {
    "Substance Smiles": "CCCCCCCCCCCCCCCNc1nc(NCCCCCCC)nc(NCCN2CCOCC2)n1",
    "Tested System": "HEK293 cells",
    "Readout Number": 0.1
  }
]

Ask: What measured Absolute mRNA transfection efficiency in HEK293 cells goes with `CCCCCCCCCCCCCCCCCCSc1nc(NCCN2CCOCC2)nc(SCCCCCCCCCCCCCCCCCC)n1` ?
Reply: 0.1

Ask: Returns the measured Absolute mRNA transfection efficiency in HEK293 cells for the input compound. Input: `CCCCCCCNc1nc(NCCCCCCC)nc(NCCCN(C)C)n1`
Reply: 0.0

Ask: Using the record for `CCCCCCCCCCCSc1nc(NCC2CCN(C)CC2)nc(SCCCCCCCCCC)n1` , report its Absolute mRNA transfection efficiency in HEK293 cells.
Reply: 93.7

Ask: Field request: Absolute mRNA transfection efficiency in HEK293 cells | item: `CCCCCCCCNc1nc(NCCCCCCC)nc(NCCN(C)C)n1`
Reply: 0.0

Ask: Quick one: Absolute mRNA transfection efficiency in HEK293 cells for `CCCCCCCCCCCCCCSc1nc(NCCCN(C)C)nc(SCCCCCCCCC)n1` ?
Reply: 80.0

Ask: # lookup: Absolute mRNA transfection efficiency in HEK293 cells of `CCCCCCCCCCCCCCCSc1nc(NCCN2CCCCC2)nc(SCCCCCCCCCCCC)n1`
Reply: 3.3

====

Test system: HEK293 cells
Assay: Preliminary screening as mRNA vectors, EGFP mRNA transfection of HEK293 cells
Assay type: cell-based
Details: EGFP mRNA 50 ng per well, 96-well plates; percentage of GFP fluorescent cells relative to total number of cells (Hoechst)
Description: Cell line: HEK293 cells (ATCC CRL-1573™) Medium: DMEM supplemented with 10% fetal bovine serum (Invitrogen) Screening: cell transfection on 96-well plates Detection (readout): percentage of the number of GFP fluorescent cells relative to the total number of cells (the total number of cells was determined using nucleus dye Hoechst). Lipofectamine2000 (Invitrogen) was used as the positive control. […]
Property Measured: Absolute mRNA transfection efficiency in HEK293 cells (%)
Only the number, expressed in %, is required.

Ask: Form field - read-out: Absolute mRNA transfection efficiency in HEK293 cells; system: HEK293 cells; submitted item: `CCCCCCCCCCCCCNc1nc(NCCN(C)C)nc(SCCCCCCCC)n1`
Reply: 15.5

Ask: Observed Absolute mRNA transfection efficiency in HEK293 cells on HEK293 cells for `CCCCCCCCCCCNc1nc(NCCCN2CCN(C)CC2)nc(SCCCCCC)n1` , please.
Reply: 11.9

Ask: Give the reported Absolute mRNA transfection efficiency in HEK293 cells for `CCCCCCCCCSc1nc(NCCCCCC)nc(NCCN2CCCC2)n1` (system: HEK293 cells).
Reply: 0.2

====

Tested on: HEK293 cells
Assay: Preliminary screening as mRNA vectors, EGFP mRNA transfection of HEK293 cells
Assay type: cell-based
Settings: EGFP mRNA 50 ng per well, 96-well plates; percentage of GFP fluorescent cells relative to total number of cells (Hoechst)
Method: Cell line: HEK293 cells (ATCC CRL-1573™) Medium: DMEM supplemented with 10% fetal bovine serum (Invitrogen) Screening: cell transfection on 96-well plates Detection (readout): percentage of the number of GFP fluorescent cells relative to the total number of cells (the total number of cells was determined using nucleus dye Hoechst). Lipofectamine2000 (Invitrogen) was used as the positive control. […]
Property Measured: Absolute mRNA transfection efficiency in HEK293 cells (%)
Numeric answer only, unit % assumed.

[
  {
    "Substance Smiles": "CCCCCCCCCCCCCCCNc1nc(NCC2CCN(C)CC2)nc(SCCCCCCCCCC)n1",
    "Readout Number": 13.2
  },
  {
    "Substance Smiles": "CCCCCCCCCCCCCCCNc1nc(NCCCN2CCN(C)CC2)nc(SCCCCCCCCCC)n1",
    "Readout Number": 5.4
  },
  {
    "Substance Smiles": "CCCCCCCCCNc1nc(NCCN2CCCCC2)nc(SCCCCCC)n1",
    "Readout Number": 1.1
  }
]

Ask: Quick one: Absolute mRNA transfection efficiency in HEK293 cells for `CCCCCCCCCCCCCCCCCCSc1nc(NCCCCCCCCCCCCCCCC)nc(NCCN2CCOCC2)n1` ?
Reply: 0.0

Ask: Reported Absolute mRNA transfection efficiency in HEK293 cells for `CCCCCCCCCSc1nc(NCCN2CCCC2)nc(SCCCCCCCC)n1` : what is it?
Reply: 11.6

Ask: Fill in: Absolute mRNA transfection efficiency in HEK293 cells of `CCCCCCCCCCCCCCSc1nc(NCCCCCCCCCCCCC)nc(NCCN(C)C)n1` is ___
Reply: 6.0

Ask: Which Absolute mRNA transfection efficiency in HEK293 cells value belongs to `CCCCCCCCCCCSc1nc(NCCCN2CCN(C)CC2)nc(SCCCCCCC)n1` ?
Reply: 80.0

Ask: # input molecule: `CCCCCCCCCNc1nc(NCCCN2CCOCC2)nc(SCCCCCCCC)n1` ; wanted: its Absolute mRNA transfection efficiency in HEK293 cells
Reply: 3.5

====

Test system: cardiomyocytes
Test: Screening as mRNA vectors in cardiomyocytes
Type: cell-based
Details: 50 ng EGFP mRNA per well
Property Measured: Absolute mRNA transfection efficiency in cardiomyocytes (%)
// note: answer is a bare numeric in %

Reference set, count: 3
[
  {
    "Substance Smiles": "CCCCCCCCCCCCSc1nc(NCCCN2CCOCC2)nc(SCCCCCCCC)n1",
    "Unit Abbreviation": "%",
    "Readout Number": 0.7
  },
  {
    "Substance Smiles": "CCCCCCCCCCCSc1nc(NCCCCCCCC)nc(NCCCN2CCN(C)CC2)n1",
    "Unit Abbreviation": "%",
    "Readout Number": 25.8
  },
  {
    "Substance Smiles": "CCCCCCCCCCCSc1nc(NCCCCCCCCC)nc(NCCCN2CCN(C)CC2)n1",
    "Unit Abbreviation": "%",
    "Readout Number": 21.0
  }
]

Ask: Request - read-out Absolute mRNA transfection efficiency in cardiomyocytes | tested on cardiomyocytes | molecule `CCCCCCCCCCCCCCSc1nc(NCCN2CCN(C)CC2)nc(SCCCCCCCCC)n1`
Reply: 0.6

Ask: What value of Absolute mRNA transfection efficiency in cardiomyocytes on cardiomyocytes does `CCCCCCCCCCCCNc1nc(NCCCN2CCN(C)CC2)nc(SCCCCCCCCC)n1` have?
Reply: 32.0

Ask: Item `CCCCCCCCCCCSc1nc(NCCCCCCCC)nc(NCCCN2CCOCC2)n1` with cardiomyocytes - Absolute mRNA transfection efficiency in cardiomyocytes?
Reply: 0.9

Ask: Give Absolute mRNA transfection efficiency in cardiomyocytes (cardiomyocytes) of the following molecule: `CCCCCCCCCCCCNc1nc(NCC2CCN(C)CC2)nc(SCCCCCCCCC)n1`
Reply: 40.6

Ask: So what Absolute mRNA transfection efficiency in cardiomyocytes did `CCCCCCCCCCCSc1nc(NCCCN(C)C)nc(SCCCCCCCC)n1` get with cardiomyocytes?
Reply: 18.4

====

System: HEK293 cells
Assay: Preliminary screening as DNA vectors, GFP transfection of HEK293 cells
Assay type: cell-based
Conditions: HEK293 cells; lipid/DOPE liposome with 75 ng plasmid DNA (psin-EGFP-IRES-Puro); number of cells expressing GFP divided by total number of nuclei (Hoechst)
Measured Absolute DNA transfection efficiency in HEK293 cells values are reported for all entries that follow.
Number only, in %; omit the unit.

[
  {
    "Substance Smiles": "CCCCCCCCCCCCCNc1nc(NCCN2CCN(C)CC2)nc(N(CCCCCCCCCCCC)CCCCCCCCCCCC)n1",
    "Readout Number": 0.0
  }
]

Ask: Which Absolute DNA transfection efficiency in HEK293 cells value is on record for `CCCCCCCCCNc1nc(NCCCCCC)nc(NCCN2CCCCC2)n1` ?
Reply: 0.0

Ask: Query (compound): `CCCCCCCCCCCCCCCNc1nc(NCCCCCCCCCCC)nc(NCCN2CCN(C)CC2)n1` ; field requested: Absolute DNA transfection efficiency in HEK293 cells
Reply: 0.2

Ask: What value of Absolute DNA transfection efficiency in HEK293 cells has been reported for the following compound? `CCCCCCCCCCCCCCSc1nc(NCCN2CCCC2)nc(SCCCCCCCCCC)n1`
Reply: 7.9
